Origin of measurements: PubChem BioAssay (NCI)

TGI overview
tested on: SK-OV-3 ovarian; assay: NCI tumour cell line growth inhibition, 48 h

{"Compound": "COc1ccc2nc(NC(=O)C(=O)C(C#N)c3ccc(CC#N)cc3)sc2c1 (stereo unspecified)", "TGI": "> 100 µM"}
{"Compound": "O=C(Nc1ccc(Oc2cccc(Cl)c2)c(Cl)c1)c1cccnc1", "TGI": "> 50 µM"}
{"Compound": "CC1CC(=O)CC[C@@H]1OCc1ccccc1 (stereo partly specified)", "TGI": "> 100 µM"}
{"Compound": "COc1cccc2c1C(=O)c1c(O)c3c(c(O)c1C2=O)C[C@@](O)(C(=O)CO)CC3OC1CC(NCCCCC(OC(C)=O)OC(C)=O)C(O)C(C)O1 (stereo partly specified)", "TGI": "> 1 µM"}
{"Compound": "C/C(=N/OCCC(=O)O)C1CC1", "TGI": "> 100 µM"}
{"Compound": "O=C(CSCC(=O)N/N=C\\c1cccc(Br)c1)N/N=C\\c1cccc(Br)c1", "TGI": "40.6 µM"}
{"Compound": "CCOC(=O)N1c2c(c3ccccc3n2C(=O)OCC)C(=O)C(OC)N1C(=O)OCC (stereo unspecified)", "TGI": "> 100 µM"}
{"Compound": "NS(=O)(=O)c1ccc(N=Nc2cc3ccccc3c(C(=O)O)c2O)cc1", "TGI": "> 100 µM"}
{"Compound": "[O-][n+]1cc(SCc2ccccc2)ncc1SCc1ccccc1", "TGI": "> 10 µM"}
{"Compound": "c1ccc2c(c1)[C@@H]1O[C@@H]1[C@@]13O[C@@]21[C@H]1O[C@H]1c1ccccc13", "TGI": "52.2 µM"}
{"Compound": "O=C1/C(=C/Cc2ccco2)N=C(c2ccccc2)N1c1nc2c(Cl)cc(Cl)cc2s1", "TGI": "> 100 µM"}
{"Compound": "NC(=O)COc1ccc(Br)cc1Br", "TGI": "> 100 µM"}
{"Compound": "c1ccc(C2C3=C(CCCC3)Nc3nnnn32)cc1 (stereo unspecified)", "TGI": "> 100 µM"}
{"Compound": "COc1ccc(C(=O)C(CN(C)C)c2ccccc2)cc1 (stereo unspecified)", "TGI": "77.2 µM"}
{"Compound": "O=C1CSC2=NC3=C(COC/C3=C\\c3ccc(F)cc3)C(c3ccc(F)cc3)N12 (stereo unspecified)", "TGI": "> 100 µM"}
{"Compound": "NC(=O)c1ccc(S(=O)(=NS(=O)(=O)c2ccccc2)c2ccc(C(N)=O)cc2)cc1", "TGI": "> 100 µM"}

* * *

tested on: OVCAR-8 ovarian; assay: NCI tumour cell line growth inhibition, 48 h
In this section we review reported TGI values for a set of molecules.
Endpoint Label: TGI

{"Molecule": "C=C(C)[C@@H]1CC[C@@H]2C(=CC[C@]3(C)C([C@H](C)CC/C=C(/C)C(=O)O)CC[C@@]23C)[C@@]1(C)CCC(=O)O (stereo not given in full)", "Result": "> 100 µM"}
{"Molecule": "NC(=O)COc1ccc(Br)cc1Br", "Result": "> 100 µM"}
{"Molecule": "CCCCCC(=O)OCC1(CO)C/C(=C/CC(C(C)C)C(C)C)C(=O)O1 (stereo not given)", "Result": "> 75 µM"}
{"Molecule": "CC(=O)c1c2c(cc3c1CCC3)CCC2", "Result": "> 100 µM"}
{"Molecule": "COc1cc(OC)cc(-c2nc3ccccc3c(=O)[nH]2)c1", "Result": "63.8 µM"}
